test system: Saccharomyces cerevisiae; test: Inhibition of yeast hexokinase assessed as Km
Reported Km values follow for various compounds
Numbers only; they are read as µM.

Worked cases, answers included:
OC1C[C@H](O)[C@H](O)CO1 (stereo partly specified) | 590
OC[C@H]1OC(O)[C@H](F)[C@@H](O)[C@@H]1O (stereo partly specified) | 190
OC[C@H]1OC(O)[C@H](O)[C@@H](F)[C@@H]1O (stereo partly specified) | 70000

Problem: Report Km from Saccharomyces cerevisiae testing of OC[C@H]1OC(O)[C@@H](F)[C@@H](O)[C@@H]1O (stereo partly specified)
Solution: 410

Problem: Report Km from Saccharomyces cerevisiae testing of OC[C@H]1OC(O)[C@H](O)[C@@H](O)[C@@H]1F (stereo partly specified)
Solution: 84000

Problem: Report Km from Saccharomyces cerevisiae testing of OC[C@H]1OC(O)C(F)(F)[C@@H](O)[C@@H]1O (stereo partly specified)
Solution: 130

* * *

Reported pKi values follow for various molecules
test: Competitive inhibition of rat brain hexokinase
Please express pKi as -log10 of the molar concentration.

CC(=O)Nc1c(I)c(C(=O)N[C@H]2C(O)O[C@H](CO)[C@@H](O)[C@@H]2O)c(I)c(N(C)C(C)=O)c1I (some centres not stated) [METRIZAMIDE] | 1.70

// next entry
Problem: Return reported pKi. Input molecule: NC1C(O)OC(CO)[C@@H](O)[C@@H]1O (some centres not stated)
Solution: 3.52

* * *

test: Competitive inhibition of yeast hexokinase; design: species or system Saccharomyces cerevisiae
Reported pKi values follow for various molecules
Please express pKi as -log10 of the molar concentration.

Problem: Return reported pKi. Input molecule: NC1C(O)OC(CO)[C@@H](O)[C@@H]1O (some centres not stated)
Solution: 3.15

Problem: Return reported pKi. Input molecule: CC(=O)Nc1c(I)c(C(=O)N[C@H]2C(O)O[C@H](CO)[C@@H](O)[C@@H]2O)c(I)c(N(C)C(C)=O)c1I (some centres not stated) [METRIZAMIDE]
Solution: 3.15

* * *

assay: Ratio of tumor to blood biodistribution in rat after 60 mins; format: ADME, organism-based; conditions: tumor and blood
ASSAY_READOUT: Kp at 1 h
Answer with the value's number alone.

OC[C@H]1OC(O)[C@H]([18F])[C@@H](O)[C@@H]1O (some centres not stated) | 22.1

// next entry
Problem: Return reported Kp at 1 h. Input compound: OC[C@H]1OC(O)[C@@H]([18F])[C@@H](O)[C@@H]1O (some centres not stated)
Solution: 29.4
